test: Antagonist activity against 1-alpha,25-dihydroxy vitamin D3-induced HL60 cell differentiation by NBT reduction method
pIC50: −log10 of the molar value.
MEASURED_PARAMETER: pIC50

C=C1/C(=C\C=C2/CCC[C@]3(C)[C@@H]([C@H](C)C[C@@H]4OC(=O)C(=C)[C@H]4CCC)CC[C@@H]23)C[C@@H](O)[C@H](C)[C@@H]1O: 8.20
C=C1C(=O)O[C@H](C[C@@H](C)[C@H]2CC[C@H]3/C(=C/C=C4/C[C@@H](O)[C@H](OCCCO)[C@H](O)C4=C)CCC[C@]23C)[C@@H]1C: 8.21
C=C1/C(=C\C=C2/CCC[C@]3(C)[C@@H]([C@H](C)C[C@H]4OC(=O)C(=C)[C@H]4CCCC)CC[C@@H]23)C[C@@H](O)[C@H](CCCO)[C@@H]1O: 8.06

---

assay: Antagonist activity against 1-alpha,25-dihydroxy vitamin D3-induced HL60 cell differentiation by NBT reduction method
pIC50: −log10 of the molar value.
MEASURED_PARAMETER: pIC50

C=C1/C(=C\C=C2/CCC[C@]3(C)[C@@H]([C@H](C)C[C@@H]4OC(=O)C(=C)[C@@H]4CC)CC[C@@H]23)C[C@@H](O)C[C@@H]1O: 8.07
C=C1C(=O)O[C@H](C[C@@H](C)[C@H]2CC[C@H]3/C(=C/C=C4/C[C@@H](O)C[C@H](O)C4=C)CCC[C@]23C)[C@@H]1CC: 8.07
C=C1/C(=C\C=C2/CCC[C@]3(C)[C@@H]([C@H](C)C[C@@H]4OC(=O)C(=C)[C@@H]4CCC)CC[C@@H]23)C[C@@H](O)C[C@@H]1O: 8.22
C=C1/C(=C\C=C2/CCC[C@]3(C)[C@@H]([C@H](C)C[C@H]4OC(=O)C(=C)[C@@H]4CC(C)C)CC[C@@H]23)C[C@@H](O)[C@H](C)[C@@H]1O: 7.96
C=C1/C(=C\C=C2/CCC[C@]3(C)[C@@H]([C@H](C)C[C@H]4OC(=O)C(=C)[C@@H]4CCC)CC[C@@H]23)C[C@@H](O)[C@H](OCCCO)[C@@H]1O: 8.20
C=C1/C(=C\C=C2/CCC[C@]3(C)[C@@H]([C@H](C)C[C@@H]4OC(=O)C(=C)[C@@H]4CCCC)CC[C@@H]23)C[C@@H](O)C[C@@H]1O: 8.09

---

assay: Antagonist activity against 1-alpha,25-dihydroxy vitamin D3-induced HL60 cell differentiation by NBT reduction method
MEASURED_PARAMETER: IC50 (nM)

Worked examples, 4 molecules total:
C=C1/C(=C\C=C2/CCC[C@]3(C)[C@@H]([C@H](C)C[C@H]4OC(=O)C(=C)[C@@H]4CCCC)CC[C@@H]23)C[C@@H](O)C[C@@H]1O: 8.2
C=C1/C(=C\C=C2/CCC[C@]3(C)[C@@H]([C@H](C)C[C@@H]4OC(=O)C(=C)[C@@H]4CCC)CC[C@@H]23)C[C@@H](O)[C@H](CCCO)[C@@H]1O: 6.3
C=C1/C(=C\C=C2/CCC[C@]3(C)[C@@H]([C@H](C)C[C@@H]4OC(=O)C(=C)[C@H]4CC)CC[C@@H]23)C[C@@H](O)[C@H](OCCCO)[C@@H]1O: 8.4
C=C1/C(=C\C=C2/CCC[C@]3(C)[C@@H]([C@H](C)C[C@H]4OC(=O)C(=C)[C@@H]4CC)CC[C@@H]23)C[C@@H](O)C[C@@H]1O: 8.6

A. C=C1/C(=C\C=C2/CCC[C@]3(C)[C@@H]([C@H](C)C[C@H]4OC(=O)C(=C)[C@@H]4CCC)CC[C@@H]23)C[C@@H](O)C[C@@H]1O
B. C=C1C(=O)O[C@@H](C[C@@H](C)[C@H]2CC[C@H]3/C(=C/C=C4/C[C@@H](O)C[C@H](O)C4=C)CCC[C@]23C)[C@@H]1CC
Inquiry: Pick one: A or B . Which has the bigger IC50 number? # reply format: chosen label
Reply text: B
(B: 8.6 nM, A: 6 nM)
